Molecular target: T1, human VEGF (human, UniProt P15692-4 27-191)
T1 construct: Bought recombinant protein; also called hVEGF; human VEGF-A
T1 sequence (P15692 other isoform, or with tags, fused parts or gaps limits assumed): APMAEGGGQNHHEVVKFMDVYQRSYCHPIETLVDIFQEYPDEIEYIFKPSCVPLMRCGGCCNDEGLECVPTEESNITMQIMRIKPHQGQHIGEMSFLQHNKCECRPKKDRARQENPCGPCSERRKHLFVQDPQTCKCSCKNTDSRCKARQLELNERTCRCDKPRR
Assay: ELISA and BIAcore
The entries below come with measured fold affinity over mother clone F values attached.

Guide cases for fold affinity over mother clone F, answers given:
HF2-10 (antibody, V domains shown) VH: EVQLVESGGGLVQPGGSLRLSCAASFQYFRSHGMQWVRQAPGKGLEYVAGISSDGSWFRVAAAVEGRFTISRDDSKNTAYLQMNSLRAEDTAVYYCARDFSTGYGADSIDAWGQGTLVTVSS VL: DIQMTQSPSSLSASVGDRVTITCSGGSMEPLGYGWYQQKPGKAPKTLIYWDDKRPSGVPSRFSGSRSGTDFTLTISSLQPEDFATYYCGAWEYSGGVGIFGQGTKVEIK :: ≥ 10 times
HF2-19 (antibody, V domains shown) VH: EVQLVESGGGLVQPGGSLRLSCAASGFSTRSHGMQWVRQAPGKGLEYVAGISSDGSWKATAAAVEGRFTISRDDSKNTAYLQMNSLRAEDTAVYYCARDFSTGYGADSIDAWGQGTLVTVSS VL: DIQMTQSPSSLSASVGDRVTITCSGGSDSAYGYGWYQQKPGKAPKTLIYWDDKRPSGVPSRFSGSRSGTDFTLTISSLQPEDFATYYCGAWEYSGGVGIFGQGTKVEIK :: ≥ 10 times

Could you now consider this next binder?
Prompt line: Tell me its fold affinity over mother clone F given HF2-9 (antibody, V domains shown, also called HF-9) VH: EVQLVESGGGLVQPGGSLRLSCAASMFRIRSHGMQWVRQAPGKGLEYVAGISSDGSWFRVAAAVEGRFTISRDDSKNTAYLQMNSLRAEDTAVYYCARDFSTGYGADSIDAWGQGTLVTVSS VL: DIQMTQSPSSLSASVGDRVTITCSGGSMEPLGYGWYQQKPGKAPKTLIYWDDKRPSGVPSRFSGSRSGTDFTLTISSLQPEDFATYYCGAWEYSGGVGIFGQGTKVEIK as the entry.
Response line: ≥ 10 times
